# z-score per record follows
test-method-notes: growth modulation of vineyard yeast isolate – strain RM11-1a, OD600, basal, 24 h, primary screen (AID 1177);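 also: cultures grown under basal conditions with no added stressor; test concentration not given here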
run-conditions: S. cerevisiae RM11-1a growth, OD600, 24 h; higher = more signal, called active from +8 up or from −8 down
readout: z-score

{"compound": "Oc1ccc2cc[n+](Cc3cccc(OC(F)(F)F)c3)cc2c1", "reported-result": 0.585}
{"compound": "[N-]=[N+]=Nc1ccccc1C[C@]1(C(=O)N2CCCCC2)N=C(c2ccc(OCCCO)cc2)O[C@H]1c1ccccc1N=[N+]=[N-]", "reported-result": 0.975}
{"compound": "Cc1ccc(S[C@]2(C(=O)NCC(F)(F)F)CC(=O)N(C3Cc4ccccc4C3)[C@@H]2c2ccc(CO)cc2I)cc1", "reported-result": -0.391}
{"compound": "COCCOC(=O)N1C(=O)[C@@]2(c3ccccc31)[C@H](C(=O)N1CCCCCCC1)[C@H]1C(=O)O[C@H](c3ccccc3)[C@H](c3ccccc3)N1[C@@H]2c1ccccc1OCCO", "reported-result": 1.79}
{"compound": "COc1ccccc1CN1C(=O)c2ccccc2[C@](Cc2ccccc2I)(C(=O)NC2CC2)[C@@H]1c1ccc(CO)cc1", "reported-result": 1.66}
{"compound": "COc1ccc([Si](C)(C)[C@@H]2[C@@H](CCn3cc([C@H](O)c4ccccc4)nn3)O[C@]3(C(=O)N(C)c4ccccc43)[C@H]2C)cc1", "reported-result": 1.04}
{"compound": "[N-]=[N+]=NCc1ccccc1[C@H]1OC(c2ccc(OCCCO)cc2)=N[C@@]1(Cc1ccccc1)C(=O)NCC(O)CO (some centres not stated)", "reported-result": -0.405}

* * *

test-method-notes: blockers of DNA damage checkpoint Chk1 activation – imaging, HeLa, hydroxyurea, phospho-Chk1 nuclear intensity, primary screen (AID 1187); also: test concentration not given here
run-conditions: hydroxyurea-induced phospho-Chk1 immunofluorescence imaging, higher = more signal
Tag: true (1) if measured z-score is not below -0.2, false (0) if it is.

{"compound": "C=CC[C@]1(C(=O)NCCN2CCOCC2)N=C(c2ccc(OCCCO)cc2)O[C@H]1c1ccccc1N=[N+]=[N-]", "assigned-label": "false (0)"}
{"compound": "CCOC(=O)N1C(c2ccc(OCCCO)cc2)=NC(C(=O)OC)N1C(=O)OCC (stereo not given)", "assigned-label": "true (1)"}
{"compound": "OCCCc1cc[n+](Cc2cccc(OC(F)(F)F)c2)cc1", "assigned-label": "false (0)"}
{"compound": "CC(c1ccccc1)C(O)C1C=CC2C(=O)N(c3ccccc3)C(=O)C2N1Nc1ccccc1F (stereo not given)", "assigned-label": "true (1)"}
{"compound": "C=C[C@H](C)[C@H](O)c1ccc(OCCO)cc1", "assigned-label": "false (0)"}

* * *

test-method-notes: probe aWnt5a binding to arrayed compounds – biochemical, biotinylated probe, 635/667 nm fluorescence, primary screen (AID 1113);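 also: score merges 667 nm fluorescence intensity with signal-to-noise per printed feature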
run-conditions: small-molecule microarray, higher = more signal
Catalogue of compounds with associated composite z-score
readout: composite z-score

{"compound": "CN1C(=O)C2C=CC(C(O)C(C)(C)C)N(Nc3ccccc3)C2C1=O (stereo unspecified)", "readout": "composite z-score", "reported-result": -0.0405}
{"compound": "C=C(C)[C@@H]1CC=C(C(O)C2C=CC3C(=O)N(Cc4ccccc4)C(=O)C3N2n2cnnc2)CC1 (stereo partly specified)", "readout": "composite z-score", "reported-result": 0.0077}
{"compound": "COc1ccc([Si](C)(C)[C@H]2[C@H](CC(=O)N(CCO)Cc3ccccc3)O[C@@]3(C(=O)N(Cc4cccc(N5C(=O)c6cccc7cccc5c67)c4)c4ccccc43)[C@@H]2C)cc1", "readout": "composite z-score", "reported-result": -0.107}
{"compound": "CCOC1=C2C(c3ccc(C)cc3)N(S(=O)(=O)c3ccc(C)cc3)CC2n2c(=O)n(-c3ccccc3)c(=O)n2C1 (stereo unspecified)", "readout": "composite z-score", "reported-result": 0.0244}
{"compound": "COc1ccc([Si](C)(C)[C@@H]2[C@@H](CCO)O[C@]3(C(=O)N(Cc4ccc(N5C(=O)c6cccc7cccc5c67)cc4)c4ccccc43)[C@H]2C)cc1", "readout": "composite z-score", "reported-result": -0.154}
{"compound": "COC(=O)[C@@]1(Cc2ccc(OC)cc2)[C@H]2c3cc(C(=O)N4CCCC4)n(C[C@H](O)CO)c3C[C@H]2CN1C(=O)c1ccccc1", "readout": "composite z-score", "reported-result": -0.252}
{"compound": "COCC1=C([C@H](O)CCc2ccccc2)[C@H](CO)[C@@H]2C(=O)N(Cc3ccccc3)C(=O)[C@@H]2C1", "readout": "composite z-score", "reported-result": -0.0194}
{"compound": "COc1ccc([Si](C)(C)[C@H]2[C@H](CCO)O[C@@]3(C(=O)N(Cc4cccc(N5C(=O)c6cccc7cccc5c67)c4)c4ccccc43)[C@@H]2C)cc1", "readout": "composite z-score", "reported-result": 0.0618}
{"compound": "C=CC[C@@]1(C(=O)NCc2ccccc2)N=C(c2ccc(OCCCO)cc2)O[C@@H]1c1ccccc1CN=[N+]=[N-]", "readout": "composite z-score", "reported-result": 0.0676}
{"compound": "CS(=O)(=O)CCOC(=O)C1=CC(c2ccc(CO)cc2)=CC(c2cccs2)N(Cc2cccc(OC(F)(F)F)c2)C=C1C(=O)OCCS(C)(=O)=O (stereo unspecified)", "readout": "composite z-score", "reported-result": 0.0044}
{"compound": "O=C1NC(=O)C2C1C=CC(C(O)c1cccs1)N2Nc1ccccn1 (stereo unspecified)", "readout": "composite z-score", "reported-result": -0.096}
{"compound": "C=CCC(OC(C)=O)[C@@H]1[C@@H](N(Cc2cc3ccccc3o2)C(=O)c2cccc3ccccc23)c2cc(OCCCO)ccc2N1C(=O)Cc1ccc(OC)cc1 (stereo partly specified)", "readout": "composite z-score", "reported-result": -0.0816}
{"compound": "O=[N+]([O-])c1ccc(C[n+]2ccc(CCCO)cc2)o1", "readout": "composite z-score", "reported-result": -0.0364}
{"compound": "C=CCN1C(=O)[C@]2(COC(c3ccc(OCCCO)cc3)=N2)Cc2ccccc21", "readout": "composite z-score", "reported-result": 0.227}
{"compound": "CC1CC/C=C\\[C@H]2OC34C=CCN(Cn5nnc6ccccc65)C(=O)[C@H]3N(CCCO)C(=O)[C@@H]4C2C(=O)O1 (stereo partly specified)", "readout": "composite z-score", "reported-result": -0.228}
{"compound": "Cc1ccc(S[C@]2(C(=O)NCCCN(C)C)CC(=O)N(Cc3ccccc3)[C@@H]2c2ccc(CO)cc2)cc1", "readout": "composite z-score", "reported-result": -0.184}
{"compound": "C=CCN1C(=O)[C@]2(Cc3ccccc31)N=C(c1ccc(OCCCO)cc1)O[C@@H]2c1ccccc1", "readout": "composite z-score", "reported-result": 0.219}
{"compound": "O=C1OCC=C[C@H]2OC34C=CCN(CCN5CCOCC5)C(=O)[C@H]3N(CCCCCCO)C(=O)[C@@H]4[C@@H]12 (stereo partly specified)", "readout": "composite z-score", "reported-result": -0.176}
{"compound": "Cc1ccc(S[C@]2(C(=O)NCCN3CCOCC3)CC(=O)N(C3CCCCC3)[C@@H]2c2ccc(CO)cc2)cc1", "readout": "composite z-score", "reported-result": -0.0685}
{"compound": "COC(=O)c1c(CC[C@@H](CO)NC(=O)Nc2ncn[nH]2)oc(C(=O)Cc2ccccc2)c1C(=O)OC", "readout": "composite z-score", "reported-result": -0.243}
{"compound": "O=C1C2C=CC(C(O)c3ccc(B(O)O)cc3)N(Nc3ccc([N+](=O)[O-])cc3)C2C(=O)N1c1ccccc1 (stereo unspecified)", "readout": "composite z-score", "reported-result": -0.0107}
{"compound": "CN1C(=O)C2C(C1=O)C1C=C(c3ccc(CO)cc3)C2C(C2CC2)N1Cc1sc2ccccc2c1Cl (stereo unspecified)", "readout": "composite z-score", "reported-result": 0.0561}
{"compound": "CCCNC(=O)[C@@]1(C)c2ccccc2C(=O)N(C(C)C)[C@H]1c1ccc(CO)cc1", "readout": "composite z-score", "reported-result": -0.212}
{"compound": "CN1C(=O)C2C(C1=O)C1C=C(c3ccc(CO)cc3)C2C(C2CC2)N1Cc1cc2c(cc1Br)OCO2 (stereo unspecified)", "readout": "composite z-score", "reported-result": -0.027}
{"compound": "O=C1O[C@@H](c2ccccc2)[C@@H](c2ccccc2)N2[C@@H](c3ccc(O)cc3)[C@]3(C(=O)Nc4ccc(C#CCCO)cc43)[C@@H](C(=O)O)[C@H]12", "readout": "composite z-score", "reported-result": 0.485}
{"compound": "Cc1ccc(S[C@]2(C(=O)NCc3ccccc3)CC(=O)N(Cc3cc(C(F)(F)F)cc(C(F)(F)F)c3)[C@@H]2c2ccc(CO)cc2)cc1", "readout": "composite z-score", "reported-result": -0.12}
{"compound": "[N-]=[N+]=NCc1ccccc1[C@H]1OC(c2ccc(OCCCO)cc2)=N[C@@]1(Cc1ccccc1)C(=O)O", "readout": "composite z-score", "reported-result": 0.0079}
{"compound": "CCOC(=O)C1=CC[C@@H](c2cccc(Cl)c2)N(S(=O)(=O)c2ccc(C)cc2)[C@H]1c1ccc(C#N)cc1", "readout": "composite z-score", "reported-result": 0.0266}
{"compound": "CCOC(=O)C=Cc1cccc(OC)c1O", "readout": "composite z-score", "reported-result": -0.122}
{"compound": "CC(C)[Si]1(C(C)C)O[C@@H](c2ccccc2)c2cc(-c3ccc(-c4ccc(Cl)c(Cl)c4)o3)nc(CCc3ccccc3)c21", "readout": "composite z-score", "reported-result": -0.152}
{"compound": "CCCNC(=O)[C@@]1(C)c2ccccc2C(=O)N(Cc2ccc(OC(F)(F)F)cc2)[C@H]1c1ccc(CO)cc1", "readout": "composite z-score", "reported-result": -0.0685}
